Reported values of kon for individual entries
EXPERIMENTAL TARGET: T1, huNotch2-EGF6-10 (human, UniProt Q04721 219-418)
T1 construct: also called human Notch2 EGF6-10
T1 sequence: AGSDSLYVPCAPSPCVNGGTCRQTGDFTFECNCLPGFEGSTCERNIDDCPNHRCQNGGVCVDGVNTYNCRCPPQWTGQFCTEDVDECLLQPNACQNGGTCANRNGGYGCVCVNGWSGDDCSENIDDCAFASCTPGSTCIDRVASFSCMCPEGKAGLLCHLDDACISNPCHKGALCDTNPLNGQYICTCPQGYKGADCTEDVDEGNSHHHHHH
ASSAY INFO: SPR BIAcore, separate experiment, substantially as for Table 4
Numbers only; they are read as M⁻¹ s⁻¹.

Q. For the binder hu.3107.L6H15 (antibody, V domains shown, also called hu.Notch-3107.L6H15) VH: EVQLVQSGAEVKKPGESLKISCKGSGYTFSNYVIHWVRQMPGKGPEWTGYIIPGSGGTKFNEKFKGQATISVDKSITTAYLQWSSLKASDTAMYYCARDGAGSFTYWGQGTLVTVSS VL: DVVMTQSPDSLAVSLGERATINCRSSQSLVHSDGNTYLHWFQQKPGQPPKLLIYRISNRFSGVPDRFSGSGSGTDFTLTISSLQAEDVAVYYCLQSTHFPDTFGGGTKVEIK , what kon is on record?
A. 396000

Q. Then this binder: hu.3107.L7H14 (antibody, V domains shown, also called hu.Notch-3107.L7H14) VH: EVQLVQSGAEVKKPGESLKISCKGSGYTFSNYVIHWVRQMPGKGPEWTGYIIPGSGGTKFNEKFKGQATISVDKSSTTAYLQWSSLKASDTAMYYCARDGAGSFTYWGQGTLVTVSS VL: DIVMTQSPDSLAVSLGERATINCRSSQSLVHSDGNTYLHWYQQKPGQPPKLLIYRISNRFSGVPDRFSGSGSGTDFTLTISSLQAEDVAVYYCLQSTHFPDTFGGGTKVEIK
A. 346000

Q. Then this binder: hu.3107.L1H15 (antibody, V domains shown, also called hu.Notch-3107.L1H15) VH: EVQLVQSGAEVKKPGESLKISCKGSGYTFSNYVIHWVRQMPGKGPEWTGYIIPGSGGTKFNEKFKGQATISVDKSITTAYLQWSSLKASDTAMYYCARDGAGSFTYWGQGTLVTVSS VL: DVVMTQSPLSLPVTLGQPASISCRSSQSLVHSDGNTYLHWFQQRPGQSPRLLIYRISNRFSGVPDRFSGSGSGTDFTLKISRVEAEDVGVYYCLQSTHFPDTFGGGTKVEIK
A. 355000

Q. Then this binder: hu.3107.L1H13 (antibody, V domains shown, also called hu.Notch-3107.L1H13) VH: EVQLVQSGAEVKKPGASVKVSCKASGYTFSNYVIHWVRQAPGQGPEWTGYIIPGSGGTKFNEKFKGRATSTVDTSITTAYMELSRLRSDDTVVYYCARDGAGSFTYWGQGTLVTVSS VL: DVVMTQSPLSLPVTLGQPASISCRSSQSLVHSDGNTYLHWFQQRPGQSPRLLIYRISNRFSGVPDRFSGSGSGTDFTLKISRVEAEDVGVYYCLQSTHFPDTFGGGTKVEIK
A. 379000

Q. Then this binder: hu.3107.L7H12 (antibody, V domains shown, also called hu.Notch-3107.L7H12) VH: EVQLVQSGAEVKKPGASVKVSCKASGYTFSNYVIHWVRQAPGQGPEWTGYIIPGSGGTKFNEKFKGRATSTVDTSSTTAYMELSRLRSDDTVVYYCARDGAGSFTYWGQGTLVTVSS VL: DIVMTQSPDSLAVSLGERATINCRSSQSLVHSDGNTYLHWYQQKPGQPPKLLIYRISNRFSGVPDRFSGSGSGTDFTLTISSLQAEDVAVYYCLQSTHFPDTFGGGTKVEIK
A. 384000

Q. Then this binder: hu.3107.L1H14 (antibody, V domains shown, also called hu.Notch-3107.L1H14) VH: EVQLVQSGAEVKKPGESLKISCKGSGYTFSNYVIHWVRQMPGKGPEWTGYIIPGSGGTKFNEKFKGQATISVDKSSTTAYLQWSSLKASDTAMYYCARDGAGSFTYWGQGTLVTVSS VL: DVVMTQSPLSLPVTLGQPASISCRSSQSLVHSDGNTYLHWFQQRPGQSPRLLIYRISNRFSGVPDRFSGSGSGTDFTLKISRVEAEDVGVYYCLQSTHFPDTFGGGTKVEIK
A. 360000
